Data origin, for the record: patent US20180326084A1

EC50 values, listed per item
Molecular target: T1, human AXL (full length) (human, UniProt P30530 26-894)
T1 construct: also called TH1021-AXL; TH1021-hAXL
Experiment: flow cytometry, A431 cells pre-incubated with 10 µg/mL Gas6 (competitor)

Binder: IgG1-AXL-733 (antibody, V domains shown) VH: QVQLVESGGGVVQPGRSLRLSCAASGFSFSTYAMHWVRQAPGKGLEWVAVISYDGDNKYSADSVKGRFTISRDNSKNTLYLQMNSLRAEDTAVYYCARGRKLGIDAFDIWGQGTMVTVSS VL: AIQLTQSPSSLSASVGDRVTITCRASQGISSALAWYQQKPGKAPKLLIYDASSLESGVPSRFSGSGSGTDFTLTISGLQPEDFATYYCQQFNSYPFTFGPGTKVDIK
EC50, µg/mL: 0.62

Binder: IgG1-AXL-511 (antibody, V domains shown, also called clone 511) VH: EVQLLESGGGLVQPGGSLRLSCAASGFTFSSYAMNWVRQAPGKGLEWVSGISGSGGHTYHADSVKGRFTISRDNSKNTLYLQMNSLRAEDTAVYYCAKDRYDILTGYYNLLDYWGQGTLVTVSS VL: DIQMTQSPSSLSASVGDRVTITCRASQGISSWLAWYQQKPEEAPKSLIYAASSLQSGVPSRFSGSGSGTDFTLTISSLQPEDFATYYCQQYNSYPLTFGGGAKVEIK
EC50, µg/mL: 0.3
